Readings of z-score for the listed compounds
- experimental_details: inhibitors of hydroxyurea-induced Chk1 phosphorylation, primary screen, imaging, HeLa, phospho-Chk1 nuclear intensity (AID 1187); note: test concentration not given here
- condition_details: hydroxyurea-induced phospho-Chk1 immunofluorescence imaging, higher = more signal
The source made the active and inactive calls. The rule behind the calls is not given here.

>  <compound>
C=C[C@H](COC(C)=O)N(Cc1ccc(OC(C)=O)c(OC)c1)S(=O)(=O)c1ccc(Br)cc1

>  <parameter_measured>
z-score

>  <data_value>
-0.314 (inactive)

$$$$
>  <compound>
CC(c1ccccc1)C(O)C1C=CC2C(=O)NC(=O)C2N1Nc1ccccn1 (stereo not given)

>  <parameter_measured>
z-score

>  <data_value>
0.136 (inactive)

$$$$
>  <compound>
COc1ccc(C(O)C2C=CC3C(=O)NC(=O)C3N2Nc2ccccn2)cc1OCc1ccccc1 (stereo not given)

>  <parameter_measured>
z-score

>  <data_value>
0.581 (inactive)

$$$$

Memo: C=CC(COC(C)=O)NS(=O)(=O)c1ccc(Br)cc1 (stereo not given) , reported z-score: 0.253 (inactive)

Recorded result, Cc1cc(C)c(C(O)C2C=CC3C(=O)N(c4ccccc4)C(=O)C3N2Nc2ccc(C#N)cc2)c(C)c1 (stereo not given) , z-score: 0.0947 (inactive)

* * *

Below, each entry is listed alongside its reported composite z-score.
- Tested on: glycogen synthase kinase-3 (GSK3A per assay name; protocol says GSK3B)
- experimental_details: GSK3 binders on small-molecule microarrays, primary screen, biochemical, small-molecule microarray, 635 nm fluorescence, GSK3A (AID 1103); note: the record names both GSK3A and GSK3B
- condition_details: small-molecule microarray binding, fluorescence 635 nm; higher = more signal
Give only the figure.

Before answering, review these 5 worked examples.
>  <compound>
C=C[C@H](C)[C@@H](O)c1ccc(O)c2ccccc12

>  <target_system>
glycogen synthase kinase-3 (GSK3A per assay name; protocol says GSK3B)

>  <composite z-score>
-0.61

$$$$
>  <compound>
CN(C)C(=O)[C@]1(CCC(=O)OC(C)(C)C)N=C(c2ccc(OCCCO)cc2)O[C@@H]1c1ccccc1N=[N+]=[N-]

>  <target_system>
glycogen synthase kinase-3 (GSK3A per assay name; protocol says GSK3B)

>  <composite z-score>
1.33

$$$$
>  <compound>
C=CC[C@@H](OC(=O)Nc1ccc(OC)cc1)c1ccc(O)c2ccccc12

>  <target_system>
glycogen synthase kinase-3 (GSK3A per assay name; protocol says GSK3B)

>  <composite z-score>
1.28

$$$$
>  <compound>
COc1ccc(C#Cc2ccc3c(c2)[C@]2(C(=O)N3)[C@H](c3ccc(O)cc3)N3[C@H](c4ccccc4)[C@H](c4ccccc4)OC(=O)[C@H]3[C@@H]2C(=O)NC[C@H](O)c2ccccc2)cc1

>  <target_system>
glycogen synthase kinase-3 (GSK3A per assay name; protocol says GSK3B)

>  <composite z-score>
0.755

$$$$
>  <compound>
C=CCC(OC(C)=O)[C@@H]1[C@@H](N(Cc2cc3ccccc3o2)C(=O)c2ccc(C)cc2)c2cc(OCCCO)ccc2N1C(=O)c1ccc2ccccc2c1 (some centres not stated)

>  <target_system>
glycogen synthase kinase-3 (GSK3A per assay name; protocol says GSK3B)

>  <composite z-score>
-0.274

$$$$

Value of measured composite z-score for the entry COc1ccc([Si](C)(C)[C@H]2[C@H](CCn3cc([C@H](O)c4ccccc4)nn3)O[C@@]3(C(=O)N(Cc4cccc(N5CCC5=O)c4)c4ccccc43)[C@@H]2C)cc1 : -0.113

Looking up N#Cc1ccc(NN2C(C(O)c3cccs3)C=CC3C(=O)N(c4ccccc4)C(=O)C32)cc1 (configuration not stated) , I see its composite z-score listed as 0.349

These entries and their values trace back to PubChem BioAssay.
